# study_system: T1, human a-PD-L1 Fc (Sino Biological, 10084-H02H, LC11NO2402) (human, UniProt Q9NZQ7 19-239)
# T1 construct: Bought Fc fusion immobilised on the SPR chip; Printed as 'a-PD-L1 Fc' but used as the antigen (ligand) for the anti-PD-L1 scFvs; also called Human PD-L1; not shown: Fc part
# T1 sequence (Q9NZQ7 19-239 limits assumed): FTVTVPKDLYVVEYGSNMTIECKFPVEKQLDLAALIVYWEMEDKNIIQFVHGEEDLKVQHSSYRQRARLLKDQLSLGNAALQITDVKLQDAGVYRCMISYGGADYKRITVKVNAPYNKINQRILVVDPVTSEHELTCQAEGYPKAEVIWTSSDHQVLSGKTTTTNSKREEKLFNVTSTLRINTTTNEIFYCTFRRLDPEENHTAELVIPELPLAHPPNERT
# procedure_summary: SPR, PD-L1 Fc immobilised, scFv analyte, 1:1 fit
Parameter: Kd. Scope: all listed entries.
Write the value in nM as a bare number.

PRO3311 (scFv 37-20-B03-sc09.1_(L12A, T101Q, L144A, T146Q)) (scFv, PRO2230 variant; VH substitutions, AHo numbering; also called PRO2230 L12A-T101Q-L144A-T146Q) scFv: DIQMTQSPASLSASVGDRVTITCQASQSIGTYLAWYQQKPGKPPKLLIYRAFILASGVPSRFSGSGSGTDFTLTISSLQPEDFATYYCQSNFYSDSTTIGPNAFGTGTKVTVLGGGGGSGGGGSGGGGSGGGGSEVQLVESGGGAVQPGGSLRLSCAASGFSFNSDYWIYWVRQAPGKGLEWIASIYGGSSGNTQYASWAQGRFTISRDNSKNTVYLQMNSLRAEDQAVYFCARGYVDYGGATDLWGQGTAVQVSS: 0.048

Next, consider the following binder.
So for PRO2903 (scFv 37-20-B03-sc09.1_(L12R, V103T, L144Q)) (scFv, VH substitutions, AHo numbering; also called PRO2230-L12R-V103T-L144Q) scFv: DIQMTQSPASLSASVGDRVTITCQASQSIGTYLAWYQQKPGKPPKLLIYRAFILASGVPSRFSGSGSGTDFTLTISSLQPEDFATYYCQSNFYSDSTTIGPNAFGTGTKVTVLGGGGGSGGGGSGGGGSGGGGSEVQLVESGGGRVQPGGSLRLSCAASGFSFNSDYWIYWVRQAPGKGLEWIASIYGGSSGNTQYASWAQGRFTISRDNSKNTVYLQMNSLRAEDTATYFCARGYVDYGGATDLWGQGTQVTVSS , the logged Kd turned out to be 0.053

Recorded values, source patent US20250382363A1.
